The reported measurements were obtained from ChEMBL document CHEMBL3400013.

- assay: Metal chelating activity of the compound assessed as formation of Ni2+ complex by UV-vis spectrometry
- Format: physicochemical
readout: Activity

O=C(N/N=C/c1nccc2ccccc12)c1ccc2c3c(ccc2c1)N1Cc2c(ccc4cc(C(=O)N/N=C/c5nccc6ccccc56)ccc24)N(C3)C1 | Active
O=C(N/N=C/c1cc([N+](=O)[O-])ccc1O)c1ccc2c3c(ccc2c1)N1Cc2c(ccc4cc(C(=O)N/N=C/c5cc([N+](=O)[O-])ccc5O)ccc24)N(C3)C1 | Active
COc1cccnc1/C=N/NC(=O)c1ccc2c3c(ccc2c1)N1Cc2c(ccc4cc(C(=O)N/N=C/c5ncccc5OC)ccc24)N(C3)C1 | Active
